- Tested on: Gelatinase
- Assay explanation: MMP inhibition by particle concentration fluorescence technique (gelatinase)
- Particulars: pH 7.5; 15 min enzyme preincubation; substrate 1-3 h at room temperature; read-out: MMP Inhibition Constants, Gelatinase Ki
Where a name gives a salt, the structure may show the parent alone.
Quantity name: log10 Ki (log10 of the value in nM)
Values are log10 of Ki in nM.

Examples with answers:
[
  {
    "Compound": "CC(C)C[C@@]1([C@@H](CCN2C(=O)c3ccc(F)cc3C2=O)C(=O)NO)CCN(CCc2ccccc2)C1=O (relative stereo) [Example 14]",
    "log10 Ki": 1.99
  },
  {
    "Compound": "CC(C)CC1(CC(=O)NO)CNN(CCc2ccccc2)C1=O (centres unmarked) [Example 38, monohydrochloride]",
    "log10 Ki": 4.16
  },
  {
    "Compound": "CC(C)C[C@@]1([C@@H](CCN2Cc3ccc(F)cc3C2=O)C(=O)NO)CCN(CCc2ccccc2)C1=O [Example 87]",
    "log10 Ki": 0.69
  }
]

Qu. Find log10 Ki (Gelatinase) for the entry CNC(=O)[C@H](Cc1ccccc1)N1CC[C@@](CC(C)C)([C@H](CCN2C(=O)c3ccccc3C2=O)C(=O)NO)C1=O [Example 58]
Ans. 0.46

Qu. Find log10 Ki (Gelatinase) for the entry CC(C)C[C@@]1(CC(=O)NO)CCN([C@@H](Cc2ccccc2)C(=O)NCc2ccncc2)C1=O [Example 45]
Ans. 1.23
